- experimental_system: Carbonic anhydrase 3 (Bos taurus)
- Sequence (Q3SZX4 whole entry): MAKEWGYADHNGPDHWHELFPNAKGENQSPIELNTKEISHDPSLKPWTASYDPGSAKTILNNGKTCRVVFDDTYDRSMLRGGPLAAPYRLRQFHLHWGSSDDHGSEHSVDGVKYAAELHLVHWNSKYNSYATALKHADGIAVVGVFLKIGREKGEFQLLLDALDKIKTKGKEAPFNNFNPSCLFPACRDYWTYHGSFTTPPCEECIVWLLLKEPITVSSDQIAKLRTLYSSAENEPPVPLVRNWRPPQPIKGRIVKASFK
Binary call on Ki with cut-off 6 µM: strictly below means class 1, and equality or higher means class 0.

compound	category
O=c1c(O)c(-c2ccc(O)c(O)c2)oc2cc(O)cc(O)c12	class 1

Determine whether this compound shows Ki lower than 6 µM (ties excluded): CC(C)(O)[C@@H]1CC[C@](C)([C@H]2[C@@H](O)C[C@@]3(C)C4C[C@H](O[C@@H]5OC(CO)[C@@H](O)C(O)[C@@H]5O)C5C(C)(C)[C@@H](O[C@@H]6OC[C@@H](O)C(O)[C@@H]6O[C@@H]6OC[C@H](O)C(O)[C@@H]6O)CC[C@@]56C[C@@]46CC[C@]23C)O1 (stereo partly specified)
class 1

Determine whether this compound shows Ki lower than 6 µM (ties excluded): Oc1cc(O)c2c(c1)O[C@H](c1ccc(O)c(O)c1)[C@@H](O)C2 [(+)-Catechin]
class 0

Determine whether this compound shows Ki lower than 6 µM (ties excluded): Oc1ccccc1O [1,2-Dihydroxybenzene, XI]
class 1

Determine whether this compound shows Ki lower than 6 µM (ties excluded): CC(C)(O)[C@@H]1CC[C@](C)([C@H]2[C@@H](O)C[C@@]3(C)C4C[C@H](O[C@@H]5OC(CO)[C@@H](O)C(O)[C@@H]5O)C5C(C)(C)[C@@H](O[C@@H]6OC[C@@H](O)C(O)[C@@H]6O)CC[C@@]56C[C@@]46CC[C@]23C)O1 (stereo partly specified)
class 1

Determine whether this compound shows Ki lower than 6 µM (ties excluded): Oc1cc(O)c2c(c1)O[C@H](c1ccc(O)c(O)c1)[C@H](O)C2
class 0
